Entries annotated with measured pest or weed control at 1000 g/ha
- Tested on: pigweed (Amaranthus retroflexus)
- experimental_protocol: Test B pre-/postemergence plant response
- Assay type: in vivo
- condition_description: Amaranthus retroflexus, pre-emergence, 240 h; Preemergence, 1000 g ai/ha; 0 to 100 scale (0 no effect, 100 complete control); read-out: Plant response rating, Pigweed

| molecule | pest or weed control at 1000 g/ha |
| --- | --- |
| Fc1cccc(Oc2ncc(Cl)cn2)c1-c1cc(C(F)F)on1 [Compound 55] | 100% |
| O=Cc1cc(-c2ccccc2Oc2ncc(Cl)cn2)no1 [Compound 33] | 40% |
| OCc1cc(-c2ccccc2Oc2ncc(Cl)cn2)no1 [Compound 31] | 0% |
| Clc1ccc(-c2ccccc2Oc2ncc(Cl)cn2)nc1 [Compound 1] | 100% |

====

- Test system: velvetleaf (Abutilon theophrasti)
- experimental_protocol: Test B pre-/postemergence plant response
- Type: in vivo
- condition_description: Postemergence, 500 g ai/ha; 0 to 100 scale (0 no effect, 100 complete control)
Each entry below carries its reported Plant response rating, Velvetleaf.
measured_metric: Plant response rating, Velvetleaf

| molecule_smiles | assay_system | measured_metric | result |
| --- | --- | --- | --- |
| FC(F)(F)c1ccc(-c2ccccc2Oc2ncc(Br)cn2)nc1 | velvetleaf (Abutilon theophrasti) | Plant response rating, Velvetleaf | 100 |
| FC(F)(F)c1cnc(Oc2ccccc2-c2cncs2)nc1 | velvetleaf (Abutilon theophrasti) | Plant response rating, Velvetleaf | 60 |
| Clc1cnc(Oc2ccccc2-c2nccc(Cl)n2)nc1 | velvetleaf (Abutilon theophrasti) | Plant response rating, Velvetleaf | 0 |
| Cc1noc(C)c1-c1c(C#N)cccc1Oc1ncc(Cl)cn1 | velvetleaf (Abutilon theophrasti) | Plant response rating, Velvetleaf | 90 |

====

- Test system: pigweed (Amaranthus retroflexus)
- experimental_protocol: Test B pre-/postemergence plant response
- Type: in vivo
- condition_description: Postemergence, 1000 g ai/ha; 0 to 100 scale (0 no effect, 100 complete control)

| molecule | assay_system | Plant response rating, Pigweed |
| --- | --- | --- |
| Clc1cnc(Oc2ccccc2-c2cncs2)nc1 [Compound 9] | pigweed (Amaranthus retroflexus) | 60 |
| Cc1cc(-c2ccccc2Oc2ncc(Cl)cn2)sn1 [Compound 171] | pigweed (Amaranthus retroflexus) | 100 |
| Brc1cnc(Oc2ccccc2-c2nnco2)nc1 [Compound 5] | pigweed (Amaranthus retroflexus) | 70 |
| Clc1cnc(Oc2ccccc2-c2cnco2)nc1 [Compound 7] | pigweed (Amaranthus retroflexus) | 20 |
| FCc1cc(-c2c(Br)cccc2Oc2ncc(Cl)cn2)no1 [Compound 191] | pigweed (Amaranthus retroflexus) | 100 |
| Fc1cccc(Oc2ncc(Cl)cn2)c1-c1cccc(OC(F)(F)F)c1 [Compound 46] | pigweed (Amaranthus retroflexus) | 100 |
| Clc1cnc(Oc2ccccc2-c2nnco2)nc1 [Compound 6] | pigweed (Amaranthus retroflexus) | 70 |
| FC(F)(F)Oc1cccc(-c2ccccc2Oc2ncc(Cl)cn2)c1 [Compound 40] | pigweed (Amaranthus retroflexus) | 100 |

====

Collected Plant response rating, Foxtail, Giant values appear next to each entry.
- Tested on: giant foxtail (Setaria faberii)
- experimental_protocol: Test B pre-/postemergence plant response
- Type: in vivo
- condition_description: Postemergence, 500 g ai/ha; 0 to 100 scale (0 no effect, 100 complete control)

| molecule_smiles | Plant response rating, Foxtail, Giant |
| --- | --- |
| Clc1cccc(-c2ccccc2Oc2ncc(Br)cn2)n1 | 0 |
| FC(F)(F)c1ccc(-c2ccccc2Oc2ncc(Cl)cn2)cc1 | 20 |
| Clc1cnc(Oc2ccccc2-c2cccnc2)nc1 | 30 |
| N#Cc1cccc(Oc2ncc(Cl)cn2)c1-c1cc(C(F)(F)F)on1 | 80 |
| Cc1ccc(Oc2ncc(Cl)cn2)c(-c2cccc(OC(F)(F)F)c2)c1 | 10 |

====

- System: pigweed (Amaranthus retroflexus)
- experimental_protocol: Test B pre-/postemergence plant response
- Format: in vivo
- condition_description: Amaranthus retroflexus, pre-emergence, 240 h; Preemergence, 500 g ai/ha; 0 to 100 scale where 0 is no effect and 100 is complete control; read-out: Plant response rating, Pigweed
# Lookup of reported pest or weed control at 500 g/ha keyed by entry

| molecule | assay_system | pest or weed control at 500 g/ha [%] |
| --- | --- | --- |
| FC(F)(F)c1ccc(-c2ccccc2Oc2ncc(Cl)cn2)nc1 [Compound 27] | pigweed (Amaranthus retroflexus) | 100 |
| FC(F)c1cc(-c2ccccc2Oc2ncc(Cl)cn2)on1 [Compound 53] | pigweed (Amaranthus retroflexus) | 100 |
| FC(F)(F)c1ccnc(-c2ccccc2Oc2ncc(Cl)cn2)c1 [Compound 25] | pigweed (Amaranthus retroflexus) | 100 |
| FC(F)c1cc(-c2ccccc2Oc2ncc(Br)cn2)no1 [Compound 62] | pigweed (Amaranthus retroflexus) | 100 |
| Fc1cccc(Oc2ncc(Cl)cn2)c1-c1cc(C(F)(F)F)on1 [Compound 168] | pigweed (Amaranthus retroflexus) | 100 |
| FC(F)(F)c1ccc(-c2c(Cl)cccc2Oc2ncc(Cl)cn2)nc1 [Compound 160] | pigweed (Amaranthus retroflexus) | 100 |

====

Documented Plant response rating, Foxtail, Giant across a set of compounds
- Tested on: giant foxtail (Setaria faberii)
- experimental_protocol: Test B pre-/postemergence plant response
- Type: in vivo
- condition_description: 31 g ai/ha, Preemergence; 0 to 100 scale where 0 is no effect and 100 is complete control
measured_metric: Plant response rating, Foxtail, Giant

| molecule_smiles | assay_system | result |
| --- | --- | --- |
| CC(F)(F)c1cc(-c2ccccc2Oc2ncc(Br)cn2)no1 | giant foxtail (Setaria faberii) | 70 |
| CC(=O)c1cc(-c2ccccc2Oc2ncc(Br)cn2)no1 | giant foxtail (Setaria faberii) | 0 |
| Clc1cnc(Oc2ccccc2-c2cc(Cl)ccn2)nc1 | giant foxtail (Setaria faberii) | 0 |
| Fc1ccc(-c2cc(C(F)(F)F)no2)c(Oc2ncc(Br)cn2)c1 | giant foxtail (Setaria faberii) | 10 |
| Clc1cnc(Oc2ccccc2-c2nnc(C3CC3)o2)nc1 | giant foxtail (Setaria faberii) | 0 |
| Cn1nc(-c2c(Br)cccc2Oc2ncc(Cl)cn2)cc1C(F)(F)F | giant foxtail (Setaria faberii) | 0 |
| CCOC(OCC)c1cc(-c2ccccc2Oc2ncc(Cl)cn2)on1 | giant foxtail (Setaria faberii) | 0 |
| FCc1cc(-c2ccccc2Oc2ncc(Cl)cn2)on1 | giant foxtail (Setaria faberii) | 40 |
| COc1cccc(Oc2ncc(Cl)cn2)c1-c1cc(C)no1 | giant foxtail (Setaria faberii) | 0 |

====

pest or weed control at 500 g/ha values, listed per item
- System: large (Lg) crabgrass (Digitaria sanguinalis)
- experimental_protocol: Test B pre-/postemergence plant response
- Type: in vivo
- condition_description: Digitaria sanguinalis, post-emergence, 240 h; Postemergence, 500 g ai/ha; 0 to 100 scale (0 no effect, 100 complete control); read-out: Plant response rating, Crabgrass, Large
measured_metric: pest or weed control at 500 g/ha (%)

| compound | unit_text | result |
| --- | --- | --- |
| Cc1ccc(Oc2ncc(Cl)cn2)c(-c2ccnc(C(F)(F)F)c2)c1 [Compound 24] | % | 90 |
| FC(F)(F)c1cc(-c2ccccc2Oc2ncc(Cl)cn2)on1 [Compound 63] | % | 90 |
| FCc1cc(-c2ccccc2Oc2ncc(Cl)cn2)no1 [Compound 32] | % | 90 |
| FC(F)(F)c1nccc(-c2ccccc2Oc2ncc(Br)cn2)n1 [Compound 21] | % | 30 |
| Cc1ccc(Oc2ncc(Cl)cn2)c(-c2ccc(C(F)(F)F)nc2)c1 [Compound 22] | % | 10 |

====

- System: morningglory (Ipomoea coccinea)
- experimental_protocol: Test D pre-/postemergence plant response
- Type: in vivo
- condition_description: Postemergence, 125 g ai/ha; scale 0 to 100, 0 no effect, 100 complete control
Use 60 as the dividing line for Plant response rating, Morningglory, with the line itself on the rule met side and lower values as rule not met.

| molecule_smiles | class_name |
| --- | --- |
| FC(F)c1cc(-c2c(Cl)cccc2Oc2ncc(Cl)cn2)on1 | rule met |
| Fc1ccc(Oc2ncc(Cl)cn2)c(-c2cc(C(F)F)on2)c1Cl | rule not met |
| FC(F)(F)c1cc(-c2c(Br)cccc2Oc2ncc(Cl)cn2)no1 | rule met |
| Clc1cnc(Oc2ccccc2-c2ccon2)nc1 | rule met |
| Clc1cnc(Oc2ccccc2-c2cc(Cl)sn2)nc1 | rule not met |

====

- Test system: wild oat (Avena fatua)
- experimental_protocol: Test E pre-/postemergence plant response
- Assay type: in vivo
- condition_description: pre-emergence, 62 g ai/ha, Preemergence, scale 0 to 100, read-out: Plant response rating, Oat, Wild
measured_metric: pest or weed control at 62 g/ha (%)

| molecule_smiles | assay_system | result |
| --- | --- | --- |
| Fc1cccc(Oc2ncc(Cl)cn2)c1-c1cc(C(F)F)on1 | wild oat (Avena fatua) | 35 |
| FC(F)c1cc(-c2ccccc2Oc2ncc(Cl)cn2)on1 | wild oat (Avena fatua) | 10 |
| Fc1cccc(Oc2ncc(Cl)cn2)c1-c1cc(C(F)(F)F)on1 | wild oat (Avena fatua) | 35 |
| FC(F)(F)c1cc(-c2ccccc2Oc2ncc(Cl)cn2)no1 | wild oat (Avena fatua) | 30 |

Reference source for all entries: patent US10131652B2
